- ASSAY TARGET: Tyrosinase (Agaricus bisporus)
- Sequence (O42713 whole entry): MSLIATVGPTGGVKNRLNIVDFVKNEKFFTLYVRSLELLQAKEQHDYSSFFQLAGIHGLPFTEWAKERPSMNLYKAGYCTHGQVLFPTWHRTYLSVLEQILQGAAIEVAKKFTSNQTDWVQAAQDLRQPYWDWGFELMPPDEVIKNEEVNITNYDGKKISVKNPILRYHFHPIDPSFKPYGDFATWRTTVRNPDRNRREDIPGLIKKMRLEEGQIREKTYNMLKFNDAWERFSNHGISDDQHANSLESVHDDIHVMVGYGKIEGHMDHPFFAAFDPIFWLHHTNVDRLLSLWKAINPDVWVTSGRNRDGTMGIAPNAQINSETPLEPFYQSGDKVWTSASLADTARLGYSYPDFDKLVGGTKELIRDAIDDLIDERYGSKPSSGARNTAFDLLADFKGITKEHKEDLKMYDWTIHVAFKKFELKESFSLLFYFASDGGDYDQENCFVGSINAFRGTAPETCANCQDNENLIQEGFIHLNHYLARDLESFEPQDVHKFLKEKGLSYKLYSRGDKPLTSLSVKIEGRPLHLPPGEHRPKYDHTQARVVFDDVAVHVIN
- ASSAY INFO: Inhibition of mushroom tyrosinase using L-DOPA as substrate incubated for 10 mins
Listed below: IC50 values for each entry.

Worked cases, IC50 given:
| SMILES ENTRY | ASSAY TARGET | IC50 |
| --- | --- | --- |
| COc1cc(/C=C/C(=O)c2cc(OC)c(OC)c(-c3cc(C(=O)/C=C/c4ccc(O)c(OC)c4)cc(OC)c3OC)c2)ccc1O | Tyrosinase (Agaricus bisporus) | 22 nM |
| COc1cc(/C=C/C(=O)c2ccc(OC)c(OC)c2)ccc1O | Tyrosinase (Agaricus bisporus) | 38 nM |

Task item: Name the recorded IC50 for COc1cccc2c1c(C(=O)C(=O)Nc1cc[nH]n1)cn2Cc1ccc(F)cc1 .
Reply: 224000 nM

---

- ASSAY TARGET: Tyrosinase (Agaricus bisporus)
- ASSAY INFO: Inhibition of mushroom tyrosinase using L-DOPA as substrate assessed as monophenolase activity incubated for 20 mins by microplate reader analysis
MEASURED QUANTITY: pIC50
Lab note: report pIC50 as minus log10 of the concentration in molar units, number only.

Task item: Name the recorded pIC50 for O=C(/C=C/c1ccc(O)cc1O)c1cccs1 .
Reply: 6.03

---

- ASSAY TARGET: Tyrosinase (Agaricus bisporus, UniProt O42713)
- ASSAY INFO: Inhibition of mushroom tyrosinase incubated for 20 mins by spectrophotometric assay
MEASURED QUANTITY: pIC50
Lab note: report pIC50 as minus log10 of the concentration in molar units, number only.

Task item: Name the recorded pIC50 for O=C(/C=C/c1cccc(Cl)c1)NCCN1CCOCC1 .
Reply: 4.82

---

- ASSAY TARGET: Tyrosinase (Agaricus bisporus)
- ASSAY INFO: Inhibition of mushroom tyrosinase using L-DOPA as substrate incubated for 20 mins by microplate reader analysis
Listed below: IC50 values for each entry.
Lab book: enter the figure in µM, no units written.

Task item: Name the recorded IC50 for Oc1ccc(/C=N\n2c(Cc3ccccc3F)n[nH]c2=S)cc1 .
Reply: 6.23

Task item: Name the recorded IC50 for Nn1c(S)nnc1N/N=C\c1ccccc1O .
Reply: 1.52

Task item: Name the recorded IC50 for Cc1cc(OCc2cn(Cc3ccc(F)cc3)nn2)c(C=C2C(=O)NC(=S)NC2=O)cc1Br .
Reply: 24.6

---

- ASSAY TARGET: Tyrosinase (Agaricus bisporus, UniProt O42713)
- ASSAY INFO: Inhibition of mushroom tyrosinase using L-dopa as substrate assessed as inhibition constant incubated for 30 mins by spectrophotometric analysis
MEASURED QUANTITY: pKi
Lab note: report pKi as minus log10 of the concentration in molar units, number only.

Task item: Name the recorded pKi for O=C1/C(=C/c2ccc(O)cc2O)Cc2ccccc21 .
Reply: 5.62

---

- ASSAY TARGET: Tyrosinase (Agaricus bisporus)
- Sequence (O42713 whole entry): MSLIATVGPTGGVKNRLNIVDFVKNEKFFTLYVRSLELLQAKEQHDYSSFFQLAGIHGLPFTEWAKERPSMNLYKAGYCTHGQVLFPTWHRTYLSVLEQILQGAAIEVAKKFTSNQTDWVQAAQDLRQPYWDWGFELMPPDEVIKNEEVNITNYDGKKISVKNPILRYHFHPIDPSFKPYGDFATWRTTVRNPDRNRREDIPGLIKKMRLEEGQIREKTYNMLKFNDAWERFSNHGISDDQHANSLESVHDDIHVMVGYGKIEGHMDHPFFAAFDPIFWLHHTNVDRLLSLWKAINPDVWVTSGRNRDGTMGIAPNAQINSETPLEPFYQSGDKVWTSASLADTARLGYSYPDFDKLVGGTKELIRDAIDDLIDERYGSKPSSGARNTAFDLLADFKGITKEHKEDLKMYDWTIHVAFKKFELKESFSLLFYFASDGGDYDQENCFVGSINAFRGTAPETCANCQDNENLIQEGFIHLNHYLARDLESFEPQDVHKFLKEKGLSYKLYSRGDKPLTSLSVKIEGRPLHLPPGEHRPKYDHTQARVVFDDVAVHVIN
- ASSAY INFO: Inhibition of mushroom tyrosinase using L-dopa as substrate assessed as diphenolase activity preincubated for 20 mins followed by substrate addition measured after 10 mins by plate reader analysis
MEASURED QUANTITY: IC50 (nM)
Lab book: enter the figure in nM, no units written.

Task item: Name the recorded IC50 for N/C(S)=N/N=C/c1ccc([N+](=O)[O-])cc1 .
Reply: 1740

---

- ASSAY TARGET: UniProt:O42713
- ASSAY INFO: Inhibition of mushroom tyrosinase using L-DOPA as substrate by HTS analysis
MEASURED QUANTITY: IC50 (µM)
Lab book: enter the figure in µM, no units written.

Task item: Name the recorded IC50 for CC(C)C(=O)Nc1nc(-c2ccc(O)cc2O)cs1 .
Reply: 108

---

- ASSAY TARGET: Tyrosinase (Agaricus bisporus)
- ASSAY INFO: Inhibition of mushroom tyrosinase using L-DOPA as substrate incubated for 20 mins
MEASURED QUANTITY: IC50 (µM)
Lab book: enter the figure in µM, no units written.

| SMILES ENTRY | IC50 [µM] |
| --- | --- |
| CCOc1cc(/C=N/NC(=O)c2ccc(O)c(OC)c2)ccc1O | 1.58 |

Next, consider the following compound.
Task item: Name the recorded IC50 for COc1cc(/C=N/NC(=O)c2ccc(O)c(OC)c2)ccc1O .
Reply: 10

---

- ASSAY TARGET: Tyrosinase (Agaricus bisporus)
- Sequence (O42713 whole entry): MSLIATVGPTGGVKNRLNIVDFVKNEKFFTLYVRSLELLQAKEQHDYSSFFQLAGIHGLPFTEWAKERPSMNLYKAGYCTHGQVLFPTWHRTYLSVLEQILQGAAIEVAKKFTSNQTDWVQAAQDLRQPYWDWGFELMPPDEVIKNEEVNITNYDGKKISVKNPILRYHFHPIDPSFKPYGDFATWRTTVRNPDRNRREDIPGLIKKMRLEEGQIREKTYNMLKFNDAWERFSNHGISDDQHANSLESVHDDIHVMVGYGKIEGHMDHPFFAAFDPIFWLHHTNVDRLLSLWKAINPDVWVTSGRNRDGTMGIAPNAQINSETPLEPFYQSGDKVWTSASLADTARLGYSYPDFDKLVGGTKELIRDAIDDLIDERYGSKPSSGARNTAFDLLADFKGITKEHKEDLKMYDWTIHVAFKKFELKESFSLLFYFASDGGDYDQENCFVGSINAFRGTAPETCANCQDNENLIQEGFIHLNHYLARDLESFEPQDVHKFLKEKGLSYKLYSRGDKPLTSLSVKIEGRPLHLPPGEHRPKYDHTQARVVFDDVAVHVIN
- ASSAY INFO: Inhibition of mushroom tyrosinase using L-DOPA as substrate preincubated with compound for 15 mins by microplate reader analysis
MEASURED QUANTITY: IC50 (µM)
Lab book: enter the figure in µM, no units written.

Task item: Request body: readout IC50, system Tyrosinase (Agaricus bisporus), query O=P(O)(c1ccccc1)C(NCc1ccccc1)c1ccccn1 (stereo unspecified) . Return the value.
Reply: 310

---

- ASSAY TARGET: Tyrosinase (Agaricus bisporus, UniProt O42713)
- ASSAY INFO: Inhibition of mushroom tyrosinase using L-tyrosine as substrate assessed as […] activity by microplate reader analysis
MEASURED QUANTITY: IC50 (µM)
Lab book: enter the figure in µM, no units written.

Task item: Request body: readout IC50, system Tyrosinase (Agaricus bisporus, UniProt O42713), query COc1ccccc1/C=C/C=N/Nc1nnc(SCc2cc(=O)c(O)co2)n1C . Return the value.
Reply: 7.5

---

- ASSAY TARGET: Tyrosinase (Agaricus bisporus, UniProt O42713)
- ASSAY INFO: Inhibition of mushroom tyrosinase using L-tyrosine as substrate assessed as monophenolase activity
MEASURED QUANTITY: pIC50
Lab note: report pIC50 as minus log10 of the concentration in molar units, number only.

Task item: Name the recorded pIC50 for O=C(OCc1cc(=O)c(O)c[nH]1)[C@H](Cc1ccccc1)NCc1ccccc1 .
Reply: 5.71
